molecular target: Acetylcholinesterase (Electrophorus electricus, UniProt O42275); assay: Inhibition of electric eel AChE using acetylthiocholine chloride as substrate preincubated for 15 mins prior to substrate addition by Ellman's method
Sequence (O42275 whole entry): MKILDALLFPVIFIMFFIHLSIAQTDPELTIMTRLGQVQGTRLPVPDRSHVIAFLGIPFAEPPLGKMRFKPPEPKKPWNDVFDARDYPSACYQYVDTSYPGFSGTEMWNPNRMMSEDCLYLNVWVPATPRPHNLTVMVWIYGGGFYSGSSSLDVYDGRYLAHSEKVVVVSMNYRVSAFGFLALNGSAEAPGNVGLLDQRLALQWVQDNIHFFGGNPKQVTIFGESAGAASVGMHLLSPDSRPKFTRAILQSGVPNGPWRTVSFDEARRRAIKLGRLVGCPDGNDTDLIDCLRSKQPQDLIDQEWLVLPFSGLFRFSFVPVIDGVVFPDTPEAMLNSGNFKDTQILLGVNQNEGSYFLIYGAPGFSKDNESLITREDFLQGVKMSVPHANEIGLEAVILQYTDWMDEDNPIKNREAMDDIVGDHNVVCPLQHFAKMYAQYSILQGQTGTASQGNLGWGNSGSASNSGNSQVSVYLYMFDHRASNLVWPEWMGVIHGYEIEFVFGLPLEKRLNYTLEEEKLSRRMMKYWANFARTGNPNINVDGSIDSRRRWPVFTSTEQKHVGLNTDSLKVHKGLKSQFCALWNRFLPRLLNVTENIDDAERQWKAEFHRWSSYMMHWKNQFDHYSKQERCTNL
RECORDED_ENDPOINT: pIC50
Just so you know, pIC50 here is -log10 of the concentration in molar units; reply with that number alone.

INSERT INTO results (compound_structure_string, data_value) VALUES
  ('COc1ccccc1SCCOc1c(OC)ccc2cc3[n+](cc12)CCc1cc2c(cc1-3)OCO2', 6.82);

Give Acetylcholinesterase (Electrophorus electricus, UniProt O42275) pIC50 for the following compound: COc1ccc2cc3[n+](cc2c1OCCSc1ccc(C)cc1)CCc1cc2c(cc1-3)OCO2
6.52

Give Acetylcholinesterase (Electrophorus electricus, UniProt O42275) pIC50 for the following compound: COc1ccc2cc3[n+](cc2c1OCCCCCSc1ccccc1)CCc1cc2c(cc1-3)OCO2
6.27

Give Acetylcholinesterase (Electrophorus electricus, UniProt O42275) pIC50 for the following compound: COc1ccc2cc3[n+](cc2c1OCCSc1ccc(Cl)cc1)CCc1cc2c(cc1-3)OCO2
6.32
